biological target: human GLP-1 receptor (Homo sapiens, UniProt P43220); assay: GLP-1R cAMP Assay (HitHunter cAMP accumulation in CHO cells stably overexpressing the human GLP-1 receptor); conditions: CHO cells overexpressing human GLP-1 receptor, 30 min treatment, 20-point dose response in triplicate
Sequence (P43220 24-463): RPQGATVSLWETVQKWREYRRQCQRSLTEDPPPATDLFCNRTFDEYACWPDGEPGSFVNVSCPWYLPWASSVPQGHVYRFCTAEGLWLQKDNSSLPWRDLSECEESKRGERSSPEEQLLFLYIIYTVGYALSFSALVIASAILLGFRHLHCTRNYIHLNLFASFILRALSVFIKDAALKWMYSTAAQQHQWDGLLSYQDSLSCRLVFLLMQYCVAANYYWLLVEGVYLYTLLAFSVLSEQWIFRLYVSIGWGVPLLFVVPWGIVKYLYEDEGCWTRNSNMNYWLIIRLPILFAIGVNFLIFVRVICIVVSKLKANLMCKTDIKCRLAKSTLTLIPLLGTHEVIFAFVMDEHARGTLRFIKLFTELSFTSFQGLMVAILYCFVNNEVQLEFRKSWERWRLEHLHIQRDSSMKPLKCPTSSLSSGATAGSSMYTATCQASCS
pEC50: −log10 of the molar value.
Measured property: pEC50

INSERT INTO assay_data (smiles_text, test_result) VALUES
  ('O=C(O)c1ccc2nc(CN3CC[C@H](Oc4ccnc(COc5ccc(Cl)cc5F)c4)C3)n(C[C@@H]3CCO3)c2c1', '> 7.30');
